Where do the numbers come from? From patent US20190135793A1.

molecular target: KDM4C (Homo sapiens, UniProt Q9H3R0); construct: Full length of KDM5B and KDM4C protein were purchased from Active Motif; purchased Active Motif 31858; assay: KDM4C AlphaScreen assay; format: biochemical; conditions: AlphaScreen; full length KDM4C 0.2 nM; biotinylated H3K9Me3 peptide 3 nM; 30 minutes at room temperature
Sequence (Q9H3R0 whole entry): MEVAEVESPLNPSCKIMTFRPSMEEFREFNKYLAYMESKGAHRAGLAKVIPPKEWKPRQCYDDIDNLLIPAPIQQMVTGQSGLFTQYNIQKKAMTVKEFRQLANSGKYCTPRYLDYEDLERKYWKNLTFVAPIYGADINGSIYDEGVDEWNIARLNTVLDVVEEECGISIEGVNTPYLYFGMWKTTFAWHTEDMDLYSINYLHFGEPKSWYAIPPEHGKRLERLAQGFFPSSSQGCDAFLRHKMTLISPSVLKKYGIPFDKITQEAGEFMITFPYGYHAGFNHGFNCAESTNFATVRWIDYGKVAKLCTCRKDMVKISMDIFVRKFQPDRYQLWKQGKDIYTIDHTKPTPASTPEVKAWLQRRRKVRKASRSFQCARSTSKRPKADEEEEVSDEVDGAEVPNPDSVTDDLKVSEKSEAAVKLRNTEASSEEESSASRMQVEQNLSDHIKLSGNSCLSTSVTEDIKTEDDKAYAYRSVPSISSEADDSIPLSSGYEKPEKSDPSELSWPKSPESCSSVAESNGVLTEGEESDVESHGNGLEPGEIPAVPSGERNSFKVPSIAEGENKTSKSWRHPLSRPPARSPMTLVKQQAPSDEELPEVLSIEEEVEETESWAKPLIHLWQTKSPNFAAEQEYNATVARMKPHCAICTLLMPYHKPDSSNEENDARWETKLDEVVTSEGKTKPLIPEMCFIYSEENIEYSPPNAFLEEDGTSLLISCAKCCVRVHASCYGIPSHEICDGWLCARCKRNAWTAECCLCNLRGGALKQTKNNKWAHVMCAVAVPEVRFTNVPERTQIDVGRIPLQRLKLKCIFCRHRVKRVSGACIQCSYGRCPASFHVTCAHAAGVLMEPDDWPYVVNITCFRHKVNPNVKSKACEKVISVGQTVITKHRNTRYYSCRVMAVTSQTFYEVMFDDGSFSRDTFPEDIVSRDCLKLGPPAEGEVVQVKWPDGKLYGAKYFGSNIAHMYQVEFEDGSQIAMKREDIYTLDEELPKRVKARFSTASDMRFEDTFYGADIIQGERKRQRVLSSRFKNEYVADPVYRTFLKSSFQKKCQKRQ
Listed here: items and their measured IC50.
Measured metric: IC50 (µM)

Smiles notation: CC(C)c1c(O)nc(-n2ccnc2)nc1-c1cnn(CC(=O)NCCN(C)C)c1
Study system: KDM4C (Homo sapiens, UniProt Q9H3R0)
Unit abbreviation: µM
Result number: 0.634
//
Smiles notation: CC(C)c1c(O)nc(-n2ccnc2)nc1OCCN1CCOCC1
Study system: KDM4C (Homo sapiens, UniProt Q9H3R0)
Unit abbreviation: µM
Result number: 1.59
//
Smiles notation: Cc1nccn1-c1nc(O)c(C(C)C)c(-c2cnn(C(C)C)c2)n1
Study system: KDM4C (Homo sapiens, UniProt Q9H3R0)
Unit abbreviation: µM
Result number: 4.48
//
Smiles notation: CC(C)c1c(O)nc(-n2ccnc2)nc1OCCC1CCN(CCCC(F)(F)F)CC1
Study system: KDM4C (Homo sapiens, UniProt Q9H3R0)
Unit abbreviation: µM
Result number: 1.14

###

target: KDM5B (Homo sapiens, UniProt Q9UGL1); construct: Full length of KDM5B and KDM4C protein were purchased from Active Motif; purchased Active Motif 31832; assay: biochemical
Sequence (Q9UGL1 whole entry): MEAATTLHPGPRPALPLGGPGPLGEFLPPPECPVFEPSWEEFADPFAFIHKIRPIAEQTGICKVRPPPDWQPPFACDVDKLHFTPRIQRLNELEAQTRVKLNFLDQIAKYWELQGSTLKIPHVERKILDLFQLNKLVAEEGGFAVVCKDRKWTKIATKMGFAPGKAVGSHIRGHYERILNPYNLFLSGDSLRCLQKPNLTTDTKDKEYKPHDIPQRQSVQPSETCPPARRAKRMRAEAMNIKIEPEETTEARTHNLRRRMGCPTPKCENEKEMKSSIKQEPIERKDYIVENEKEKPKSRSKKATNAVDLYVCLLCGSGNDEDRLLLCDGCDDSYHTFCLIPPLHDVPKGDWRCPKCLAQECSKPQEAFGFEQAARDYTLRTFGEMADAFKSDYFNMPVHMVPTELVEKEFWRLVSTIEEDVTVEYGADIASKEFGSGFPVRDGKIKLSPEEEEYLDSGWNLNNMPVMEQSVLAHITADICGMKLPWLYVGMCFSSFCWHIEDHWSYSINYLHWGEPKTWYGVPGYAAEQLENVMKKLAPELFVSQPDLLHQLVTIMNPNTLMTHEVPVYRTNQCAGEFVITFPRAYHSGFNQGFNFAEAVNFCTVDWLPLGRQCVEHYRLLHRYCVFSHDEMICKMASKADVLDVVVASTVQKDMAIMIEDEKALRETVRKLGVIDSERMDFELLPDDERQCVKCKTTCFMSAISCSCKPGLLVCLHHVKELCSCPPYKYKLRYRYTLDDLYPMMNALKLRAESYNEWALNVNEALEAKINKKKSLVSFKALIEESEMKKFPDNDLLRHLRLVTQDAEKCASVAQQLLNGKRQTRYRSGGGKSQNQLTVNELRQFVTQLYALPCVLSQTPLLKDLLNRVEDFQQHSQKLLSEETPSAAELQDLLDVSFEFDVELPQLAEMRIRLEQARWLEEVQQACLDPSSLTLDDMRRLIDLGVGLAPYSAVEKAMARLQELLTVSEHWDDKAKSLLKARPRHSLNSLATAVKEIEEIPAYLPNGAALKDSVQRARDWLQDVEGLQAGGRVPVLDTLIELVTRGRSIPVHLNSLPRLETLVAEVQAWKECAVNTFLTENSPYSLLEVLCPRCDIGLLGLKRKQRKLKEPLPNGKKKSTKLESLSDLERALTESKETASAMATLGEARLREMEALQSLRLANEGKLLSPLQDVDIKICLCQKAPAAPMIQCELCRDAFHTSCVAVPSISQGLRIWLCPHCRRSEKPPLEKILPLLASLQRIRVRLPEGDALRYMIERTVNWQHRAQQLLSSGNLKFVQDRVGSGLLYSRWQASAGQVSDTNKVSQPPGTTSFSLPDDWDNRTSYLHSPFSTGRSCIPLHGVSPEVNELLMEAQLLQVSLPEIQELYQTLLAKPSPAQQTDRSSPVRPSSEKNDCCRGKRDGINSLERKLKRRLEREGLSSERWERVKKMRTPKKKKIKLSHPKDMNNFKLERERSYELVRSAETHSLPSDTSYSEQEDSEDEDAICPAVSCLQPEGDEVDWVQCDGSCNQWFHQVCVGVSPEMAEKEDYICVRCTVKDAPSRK
pIC50: −log10 of the molar value.
pIC50 of 7 or higher: MET. Under 7: NOT MET.

Compound: CC(C)c1c(O)nc(-n2ccnc2)nc1-c1cnn(-c2ccccc2)c1
Category label: MET

Compound: CCc1c(C)nc(-c2cncs2)nc1O
Category label: NOT MET

Compound: Cc1nc(-n2ccnc2)nc(O)c1C(C)C
Category label: MET

Compound: CC(C)c1c(O)nc(-n2ccnc2)nc1NCc1cccnc1
Category label: MET

Compound: CC(C)c1c(O)nc(-n2ccnc2)nc1OCC1COCCN1 (centres unmarked)
Category label: MET

Compound: CNC(=O)Cn1cc(-c2nc(-n3ccnc3)nc(O)c2C(C)C)cn1
Category label: MET

Compound: CC(C)c1c(O)nc(-n2ccnc2)nc1-c1cnn(CC(=O)N2CCC(C#N)C2)c1 (centres unmarked)
Category label: MET

Compound: CC(C)c1c(O)nc(-n2ccnc2)nc1-c1cnn(CC(=O)NCCN2CCOCC2)c1
Category label: MET

Compound: CC(C)c1c(O)nc(-n2ccnc2)nc1-c1cnn(C2CCOCC2)c1
Category label: MET

Compound: CC(C)Cn1cc(-c2nc(-n3ccnc3)nc(O)c2C(C)C)cn1
Category label: MET

Compound: CC(C)c1c(O)nc(-n2ccnc2-c2ccccn2)nc1Cl
Category label: NOT MET

Compound: Cc1nc(-n2ccnc2CO)nc(O)c1C(C)C
Category label: MET

Compound: CC(C)c1c(O)nc(-n2ccnc2)nc1-c1cnn(CC(=O)N2CCC(C#N)CC2)c1
Category label: MET

###

biological target: KDM5B (Homo sapiens, UniProt Q9UGL1); construct: Full length of KDM5B and KDM4C protein were purchased from Active Motif; purchased Active Motif 31832; assay: biochemical; conditions: AlphaScreen; full length KDM5B 0.5 nM; biotinylated H3K4Me3 peptide 3 nM; 25 minutes at room temperature; read-out: KDM5B (IC50)

Smiles notation: CC(C)c1c(O)nc(-n2ccnc2)nc1-c1ccc(C(N)=O)nc1
IC50 (nM): 13

Smiles notation: CC(C)c1c(O)nc(-n2ccnc2)nc1-c1cnn(CC(=O)N2CCN(C)CC2)c1
IC50 (nM): 10

Smiles notation: CC(C)c1c(O)nc(-n2ccnc2)nc1-c1ccc(CNS(C)(=O)=O)cc1
IC50 (nM): 13

Smiles notation: Cc1n[nH]cc1-c1nc(-n2ccnc2)nc(O)c1C(C)C
IC50 (nM): 17

Smiles notation: CC(C)c1c(O)nc(-n2ccnc2)nc1-c1cnn(CC(=O)NCCN2CCCC2=O)c1
IC50 (nM): 20

Smiles notation: CC(C)c1c(O)nc(-n2ccnc2)nc1-c1cnn(Cc2cccnc2)c1
IC50 (nM): 10

Smiles notation: CC(C)c1c(O)nc(-n2ccnc2)nc1-c1cn[nH]c1
IC50 (nM): 10

Smiles notation: CC(C)c1c(O)nc(-n2ccnc2)nc1OCCN1CCNCC1
IC50 (nM): 10

Smiles notation: CC(C)c1c(O)nc(-n2ccnc2)nc1OCC1(N)CC1
IC50 (nM): 19

Smiles notation: CNC(=O)c1ccc(-c2nc(-n3ccnc3)nc(O)c2C(C)C)cn1
IC50 (nM): 18

Smiles notation: CC(C)c1c(O)nc(-n2ccnc2)nc1OCCN(C)C
IC50 (nM): 58
